Measured TGI, listed per entry for reference.
test system: A549 NSCLC; assay: NCI tumour cell line growth inhibition, 48 h

Some solved cases for reference:
{"columns": ["Compound", "Subject of test", "TGI"],
 "data": [
  ["Cc1c(-c2nc(N)c(C#N)c(N)c2C#N)c(=O)oc2ccccc12", "A549 NSCLC", "> 100 µM"],
  ["NC(=O)CCc1ccccc1Oc1nccc(-c2c(-c3ccc(F)cc3)ncn2C2CCNCC2)n1", "A549 NSCLC", "> 25 µM"],
  ["CC(CNC(=O)c1ccccc1)(CNC(=O)c1ccccc1)[N+](=O)[O-]", "A549 NSCLC", "> 100 µM"],
  ["CN(C)CCN(C)C(=O)C1CCCN1C(=O)OCc1ccccc1 (stereo not given)", "A549 NSCLC", "> 100 µM"]
]}

Query :: Can you share its TGI? I mean this compound: "Cc1cc(C)nc(NCCC(O)(P(=O)(O)O)P(=O)(O)O)n1"
Result :: > 100 µM

====

test system: MDA-MB-435
Response enum: 1 = active, -1 = inactive

{"columns": ["Compound", "Class name"],
 "data": [
  ["O=C(O)c1ccc(C(=O)O)c(C(=O)O)c1.[NH-]C1CCCCC1[NH-].[Pt+2]", -1],
  ["CCCCCCc1cc2cc(-c3csc(/C=C/c4ccccc4)n3)c(=O)oc2cc1O", -1],
  ["N#Cc1c2ccccc2c2nnc3ccc(C(F)(F)F)cc3n12", -1]
]}

Query :: What outcome does the record of this test show for CCN1C(=O)N(CC)C2C1NC(=S)N2/N=C/C=C/c1ccccc1OC (stereo unspecified) ?
Result :: 1

Query :: # fetch the recorded call for "O=C1/C(=C\c2ccccc2)CN(C(=O)c2ccccc2)C/C1=C\c1ccccc1" here
Result :: -1

Query :: What call does the record list for "Brc1ccc(Nc2nc3ccccc3nc2Nc2ccc(Br)cc2)cc1" ?
Result :: -1

====

system: NCI-H460 lung; experiment: NCI tumour cell line growth inhibition, 48 h
Value kind: TGI (µM)
Supply the numeric figure in µM, leaving out any unit text.

{"columns": ["Compound", "TGI (µM)"],
 "data": [
  ["O=C(CCc1ccc(O)c(O)c1)NCCc1cc(O)c(O)c(O)c1", 40.8]
]}

Query :: Reported TGI, compound Oc1ccc(Cc2ccc(O)c(C3CC(c4ccc(Cl)cc4)=NN3)c2)cc1C1CC(c2ccc(Cl)cc2)=NN1 (stereo not given) : ____
Result :: 8.87

====

test system: HOP-92 NSCLC; experiment: NCI tumour cell line growth inhibition, 48 h
Items are presented alongside their recorded TGI.

{"columns": ["Molecule", "TGI"],
 "data": [
  ["O=C(O)c1cccc(OCCOc2cccc(C(=O)O)c2[N+](=O)[O-])c1[N+](=O)[O-]", "> 100 µM"],
  ["N#CCC1C2CC3C(C2=O)C13 (stereo unspecified)", "> 100 µM"]
]}

Query :: Form field: reported TGI of "C=C(CCC/C(C)=C/C=C/[C@H](C)CCCc1ccoc1)C[C@@H]1OC(=O)[C@H](C)[C@@H]1O"
Result :: 18.5 µM

Query :: Return reported TGI; argument: NC(CO)c1ccc(OCc2ccccc2)cc1 (stereo unspecified)
Result :: 98.1 µM

Query :: Please look up its TGI: "N#Cc1c2ccccc2c2nnc3ccccc3n12"
Result :: > 100 µM

Query :: Look up TGI for this molecule: "O=C(/C=C/c1nnc2n(Cc3ccccc3)c(=O)c3c4c(sc3n12)CCCC4)c1ccccc1"
Result :: > 100 µM

Query :: Record request: TGI value, item "CCCCCCc1cc2cc(-c3csc(/C=C/c4ccccc4)n3)c(=O)oc2cc1O"
Result :: 17.7 µM

====

Readings of TGI for the listed compounds
test system: SNB-19 CNS; assay: NCI tumour cell line growth inhibition, 48 h

Look over these answered cases.
{"columns": ["Compound", "Subject of test", "Value kind", "Value reported"],
 "data": [
  ["O=c1c(O)cc2c(O)oc3c(=O)c(O)c(O)c4c(O)oc1c2c43", "SNB-19 CNS", "TGI", "> 100 µM"],
  ["CCCCOC(=O)NC(Nc1ccc(S(=O)(=O)Nc2ncccn2)cc1)(C(F)(F)F)C(F)(F)F", "SNB-19 CNS", "TGI", "> 100 µM"],
  ["O=P(CCOc1ccccc1OCCP(=O)(c1ccccc1)c1ccc2c(c1)OCCOCCOCCOCCO2)(c1ccccc1)c1ccc2c(c1)OCCOCCOCCOCCO2 (stereo not given)", "SNB-19 CNS", "TGI", "> 100 µM"]
]}

Query :: # value lookup — system SNB-19 CNS, readout TGI, item "O=c1oc2ccc3ccccc3c2cc1-c1cn2c(n1)sc1ccccc12"
Result :: > 100 µM

Query :: API: value(readout= TGI, system= SNB-19 CNS, query= CN1C(C)(C)CC(=O)C(Br)C1(C)C (stereo not given) )
Result :: > 100 µM

====

test system: HS 578T breast; test: NCI tumour cell line growth inhibition, 48 h
This listing pairs compounds with measured TGI.

Query :: Can you look up TGI on HS 578T breast for O=C(/C=C/c1ccc(O)c(O)c1)NC(COC(=O)/C=C/c1ccc(O)c(O)c1)C(=O)O (stereo unspecified) ?
Result :: > 100 µM

Query :: TGI of "S=C(Nc1ccc2c(c1)oc1ccccc12)c1cccs1" on HS 578T breast?
Result :: > 100 µM

Query :: Give TGI (HS 578T breast) of the following compound: CN1C(C)(C)CC(=O)C(Br)C1(C)C (stereo unspecified)
Result :: > 100 µM

====

system: HOP-62 NSCLC; test: NCI tumour cell line growth inhibition, 48 h; in the data active = GI50 below about 0.43 µM; inactive = the rest
Choose the fitting class; nothing outside class 1 for active, class 0 for inactive is accepted.

Use these answered entries as a reference point.
{"columns": ["Smi", "Class name"],
 "data": [
  ["CCCCCCc1cc2cc(-c3csc(/C=C/c4ccccc4)n3)c(=O)oc2cc1O", "class 0"],
  ["COc1ccc(/C=C/C(=O)c2ccc(Nc3nc(Nc4ccc(F)cc4)nc(Nc4ccc(Cl)cc4)n3)cc2)cc1", "class 0"]
]}

Query :: How did this test come out for "O=C(O)c1ccc(C(=O)O)c(C(=O)O)c1.[NH-]C1CCCCC1[NH-].[Pt+2]" ?
Result :: class 0

Query :: Record lookup: outcome of this test for "COc1ncc(-c2ccc3nccc(C#CCN4CCN(S(C)(=O)=O)CC4)c3c2)cc1NS(=O)(=O)c1ccc(F)cc1F" ?
Result :: class 1

====

system: HCC-2998 colon; assay: NCI tumour cell line growth inhibition, 48 h
Overview of recorded TGI for various compounds

Some entries whose results are on file:
{"columns": ["Compound", "TGI"],
 "data": [
  ["Cn1nc(-c2ccccc2)c2c(-c3ccccc3)c3cc(Cl)ccc3nc21", "> 100 µM"],
  ["CN(C)c1ccc(/C=c2\\sc3nnc(-c4cccnc4)n3c2=O)cc1", "> 100 µM"],
  ["O=c1c(O)cc2c(O)oc3c(=O)c(O)c(O)c4c(O)oc1c2c43", "> 100 µM"]
]}

Query :: Could you tell me which TGI is on file for Cn1c(NCC(CN2CCCC2)OC(=O)c2ccccc2)cc(=O)n(C)c1=O (stereo not given) ?
Result :: > 100 µM

Query :: Need TGI, item COC(=O)CC(CNC(=O)OCc1ccccc1)OCc1ccc(OC)cc1 (stereo not given)
Result :: > 100 µM

Query :: Which TGI is listed for CCCCN(CCCC)CC(C(=O)Nc1ccc([N+](=O)[O-])cc1[N+](=O)[O-])/C(C)=N\NC(=O)C[N+](C)(C)C (stereo not given) ?
Result :: > 100 µM

Query :: Form field: reported TGI of CCOC(=O)C1=CNC(C(=O)OCC)C1c1cccn1-c1ccccc1 (stereo not given)
Result :: > 100 µM

====

test system: MDA-MB-231 breast; experiment: NCI tumour cell line growth inhibition, 48 h
Reported TGI by item:

Please review the entries below; each comes with its answer.
{"columns": ["Smi", "TGI"],
 "data": [
  ["O=C(Cc1ccc(Nc2ccnc(C(F)(F)F)c2)cc1)N/N=C/c1ccccc1O", "> 74.9 µM"],
  ["COc1ccccc1NC(=O)C(=O)Cc1cnc2ccccc2n1", "> 100 µM"]
]}

Moving on to another compound below.
Query :: Field: TGI (MDA-MB-231 breast). Entry: "Cn1c(=O)c2[nH]c(CCCc3ccc([N+](=O)[O-])cc3)nc2n(C)c1=O"
Result :: > 100 µM

====

Here, each record is paired with measured TGI data.
tested on: SK-MEL-2 melanoma; assay: NCI tumour cell line growth inhibition, 48 h

See these solved cases before continuing.
{"columns": ["Compound", "TGI"],
 "data": [
  ["O=[N+]([O-])c1ccc(CN=C2NNS(=O)(=O)c3ccccc32)cc1", "> 100 µM"],
  ["COc1ccc2[nH]c3c4c(cc(-c5ccccc5)c3c2c1)C(=O)N(c1ccccc1)C4=O", "> 100 µM"],
  ["O=C1CCSc2nc(-c3ccc4c(c3)OCO4)nn21", "> 10 µM"],
  ["Cc1cccc(N=C/C=C(\\Cl)c2ccc3ccccc3c2)c1", "68.9 µM"],
  ["C=C(CN1CCN(c2ccccc2C(F)(F)F)CC1)c1ccc(C(=O)Nc2ccccc2N)cc1", "> 95.1 µM"]
]}

Query :: Name the reported TGI value associated with the compound CCCCCCCC(CC(=O)NC(CO)C(=O)NC(CO)CC(C)C)OC(=O)CC(CCCCCCC)OC(=O)CC(CCCCCCC)OC1OC(C)C(O)C(OC2OC(C)C(O)C(O)C2O)C1O (stereo not given)
Result :: 13.3 µM

Query :: Which measured TGI value corresponds to "C/C(=N/NC(=S)N1CC2CCC(CC2)C1)c1cnccn1" ?
Result :: 8.75 µM

Query :: TGI for "O=c1nc(N2CCCC2)nc(N2CCCC2)s1" ?
Result :: > 100 µM

Query :: // lookup TGI for "CC(C)OC(=O)NNc1cccc(Cl)c1"
Result :: > 100 µM

Query :: Which TGI is listed for N#CCC1C2CC3C(C2=O)C13 (stereo not given) ?
Result :: > 100 µM
